biological target: human JAK2 (a.a. 828-1132) (Homo sapiens); construct: JAK2 (a.a. 828-1132); His tag (N); made in house; host or cells: insect cells (baculovirus); experiment: In vitro JAK kinase assay (HTRF, phosphorylation of a biotinylated peptide), JAK2; format: biochemical; conditions: Table B1
Sequence (O60674 828-1132): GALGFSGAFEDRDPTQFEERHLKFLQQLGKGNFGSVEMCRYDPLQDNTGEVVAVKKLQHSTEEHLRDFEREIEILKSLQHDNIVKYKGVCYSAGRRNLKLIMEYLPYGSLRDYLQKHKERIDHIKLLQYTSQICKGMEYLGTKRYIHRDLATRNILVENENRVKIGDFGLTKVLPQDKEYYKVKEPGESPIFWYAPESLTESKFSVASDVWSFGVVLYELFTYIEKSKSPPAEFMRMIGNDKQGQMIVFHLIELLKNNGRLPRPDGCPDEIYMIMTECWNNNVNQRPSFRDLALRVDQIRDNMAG
Structures can show the parent of a compound that is named as a salt.
attribute-measured: IC50 (nM)

Cc1cccc(C(=O)Nc2ccc3cc2CCc2cccc(c2)Nc2ncc(Cl)c(n2)N3)c1 [Example B46, trifluoroacetate] = 2.3

[1] CC(=O)N1CC[C@H](NC(=O)Nc2ccc3cc2CCc2cncc(c2)Nc2ncc(Cl)c(n2)N3)C1 [Example B226, bis(trifluoroacetate)]
[2] COc1cccc(N2CCN(C(=O)Nc3ccc4cc3CCc3cncc(c3)Nc3ncc(Cl)c(n3)N4)CC2)c1 [Example B304, tris(trifluoroacetate)]
[3] N#Cc1ccc(N2CCN(C(=O)Nc3ccc4cc3CCc3cncc(c3)Nc3ncc(Cl)c(n3)N4)CC2)cc1 [Example B303, tris(trifluoroacetate)]
[4] CN(C)c1ccc(C(=O)Nc2ccc3cc2CCc2cccc(c2)Nc2ncc(Cl)c(n2)N3)cc1 [Example B82, bis(trifluoroacetate)]
[5] O=C(Nc1nc(C(=O)O)cs1)Nc1ccc2cc1CCc1cccc(c1)Nc1ncc(Cl)c(n1)N2 [Example B250, trifluoroacetate]
Order the entries by their reported IC50, beginning at the minimum. A complete answer lists every label in the requested sequence.
4, 5, 1, 3, 2

###

target: TYK2 (Homo sapiens); test: TYK2 kinase inhibition (Table A1); type: biochemical; details: Table B1
Sequence (P29597 whole entry): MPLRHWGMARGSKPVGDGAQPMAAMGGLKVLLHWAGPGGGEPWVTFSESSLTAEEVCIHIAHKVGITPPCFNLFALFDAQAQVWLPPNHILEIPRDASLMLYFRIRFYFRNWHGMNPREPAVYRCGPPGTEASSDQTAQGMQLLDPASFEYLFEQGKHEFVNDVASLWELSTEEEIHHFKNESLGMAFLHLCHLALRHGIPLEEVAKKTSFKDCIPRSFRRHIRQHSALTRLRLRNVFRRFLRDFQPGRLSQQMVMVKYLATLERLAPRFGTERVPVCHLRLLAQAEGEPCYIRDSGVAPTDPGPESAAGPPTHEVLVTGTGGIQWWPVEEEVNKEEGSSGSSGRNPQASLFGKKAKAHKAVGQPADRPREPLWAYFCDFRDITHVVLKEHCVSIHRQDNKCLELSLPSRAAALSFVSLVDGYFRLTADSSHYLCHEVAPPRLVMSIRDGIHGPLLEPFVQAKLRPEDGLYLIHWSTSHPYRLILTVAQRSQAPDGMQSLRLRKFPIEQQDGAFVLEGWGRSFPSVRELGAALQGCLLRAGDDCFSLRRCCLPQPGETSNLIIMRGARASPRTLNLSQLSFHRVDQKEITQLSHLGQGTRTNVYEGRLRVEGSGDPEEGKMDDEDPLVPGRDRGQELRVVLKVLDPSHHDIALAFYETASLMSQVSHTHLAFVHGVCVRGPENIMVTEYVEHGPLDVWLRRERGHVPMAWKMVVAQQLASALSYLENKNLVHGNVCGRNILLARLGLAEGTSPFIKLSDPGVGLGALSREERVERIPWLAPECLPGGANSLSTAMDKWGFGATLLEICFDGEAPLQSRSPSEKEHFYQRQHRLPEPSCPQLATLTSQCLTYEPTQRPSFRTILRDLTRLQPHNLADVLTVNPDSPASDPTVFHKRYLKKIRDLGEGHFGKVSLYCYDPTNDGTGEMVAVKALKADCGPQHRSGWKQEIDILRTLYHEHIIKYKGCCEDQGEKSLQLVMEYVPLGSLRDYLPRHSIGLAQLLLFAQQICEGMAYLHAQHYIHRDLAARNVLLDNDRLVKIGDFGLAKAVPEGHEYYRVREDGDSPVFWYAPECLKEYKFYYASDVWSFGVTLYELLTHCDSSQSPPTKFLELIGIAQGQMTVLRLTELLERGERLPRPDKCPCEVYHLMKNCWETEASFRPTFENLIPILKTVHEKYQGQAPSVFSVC
Where a name gives a salt, the structure may show the parent alone.
attribute-measured: IC50 (nM)

[A] O=C(Nc1ccc2c(c1)CCC2)Nc1ccc2cc1CCc1cccc(c1)Nc1ncc(Cl)c(n1)N2 [Example B103, trifluoroacetate]
[B] O=C(Nc1ccc2cc1CCc1cccc(c1)Nc1ncc(Cl)c(n1)N2)c1cccs1 [Example B34, trifluoroacetate]
When the recorded IC50 values are compared, which is smaller: that of A or that of B ? Write down the label of the entry you select.
B
(B: 5.6 nM, A: 46 nM)

[A] CC(C)(C)c1ccc(C(=O)Nc2ccc3cc2CCc2cccc(c2)Nc2ncc(Cl)c(n2)N3)cc1 [Example B73, trifluoroacetate]
[B] COc1cccc(S(=O)(=O)Nc2ccc3cc2CCc2cccc(c2)Nc2ncc(Cl)c(n2)N3)c1 [Example B157, trifluoroacetate]
Form field 'greater IC50' accepts A or B ; which applies? Reply with the label of the item you choose.
A
(A: 154 nM, B: 0.62 nM)

###

target: human JAK3 (a.a. 781-1124) (Homo sapiens); construct: JAK3 (a.a. 781-1124); His tag (N); made in house; host or cells: insect cells (baculovirus); experiment: In vitro JAK kinase assay (HTRF, phosphorylation of a biotinylated peptide), JAK3; format: biochemical; conditions: Table B1
Sequence (P52333 781-1124): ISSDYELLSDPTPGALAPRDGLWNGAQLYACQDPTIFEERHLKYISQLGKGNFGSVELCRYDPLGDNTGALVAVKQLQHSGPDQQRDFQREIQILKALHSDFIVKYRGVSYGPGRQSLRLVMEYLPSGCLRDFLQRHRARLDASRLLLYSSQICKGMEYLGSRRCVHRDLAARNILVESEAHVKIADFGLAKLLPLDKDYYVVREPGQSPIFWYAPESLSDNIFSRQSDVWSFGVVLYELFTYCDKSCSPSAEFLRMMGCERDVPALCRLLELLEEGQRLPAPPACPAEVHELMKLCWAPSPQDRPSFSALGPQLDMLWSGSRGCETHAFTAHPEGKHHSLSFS
pIC50: −log10 of the molar value. Where a name gives a salt, the structure may show the parent alone.
attribute-measured: pIC50

O=C(NCCN1CCNCC1)Nc1ccc2cc1CCc1cccc(c1)Nc1ncc(Cl)c(n1)N2 [Example B260, trihydrochloride] = 7.29

[A] O=C(Nc1ccc2cc1CCc1cccc(c1)Nc1ncc(Cl)c(n1)N2)N[C@H]1CCN(C(=O)c2ccno2)C1 [Example B230, trifluoroacetate]
[B] CC(=O)N1CC[C@H](NC(=O)Nc2ccc3cc2CCc2cncc(c2)Nc2ncc(Cl)c(n2)N3)C1 [Example B226, bis(trifluoroacetate)]
[C] O=C(Nc1ccc2cc1CCc1cccc(c1)Nc1ncc(Cl)c(n1)N2)c1ccc(C(F)(F)F)nc1 [Example B77, bis(trifluoroacetate)]
[D] COc1cccc(C(=O)Nc2ccc3cc2CCc2cccc(c2)Nc2ncc(Cl)c(n2)N3)c1 [Example B66, trifluoroacetate]
Order the records so the highest pIC50 appears first and the lowest last. Answer by writing out the labels in the requested order.
C, D, A, B
